- System: MDA-MB-231 breast
- EXPERIMENT SUMMARY: NCI tumour cell line growth inhibition, 48 h
Where a SMILES comes first, the peptide text is derived from it. [ ]: non-standard residue; d: D form. The star is where a group is joined. ξ: configuration not given here. ξD = NC(CC(=O)O)C(=O)O; Boc = CC(C)(C)OC(=O)*; Aib = CC(C)(N)C(=O)O; OtBu = CC(C)(C)O*
QUANTITY NAME: TGI

Task item: Look up TGI: C[C@]12CC[C@H]3[C@@H](CCC4=C[C@@H](N5CCCC5)CC[C@@]43C)[C@@H]1C/C(=C\c1ccncc1)[C@@H]2O
Reply: 29.8 µM

Task item: Then what about the molecule COc1ccc(OC)c(/C=C/C(=O)N/N=C/c2ccccc2)c1 ?
Reply: > 100 µM

Task item: Then what about the molecule Cn1c(-c2cccc(N)c2)[n+](C)c2ccccc21 ?
Reply: > 100 µM

Task item: Then what about the molecule C(CCCCc1nnc(N2CCOCC2)o1)CCCc1nnc(N2CCOCC2)o1 ?
Reply: > 100 µM

Task item: Then what about the molecule CC(CO)CCNc1ncnc2c1ncn2CCC#N (configuration not stated) ?
Reply: > 100 µM

Task item: Then what about the molecule C[N+]1([O-])CCC(O)(C2CC2)CC1 (configuration not stated) ?
Reply: > 100 µM

Task item: Then what about the molecule COc1ccc(C2=C(c3cn(C)c4ccccc34)C(=O)OC2)cc1OC ?
Reply: > 100 µM

Task item: Then what about the molecule CCOC(=O)C1(C)CCCc2sc(N)c(C#N)c21 (configuration not stated) ?
Reply: > 100 µM

Task item: Then what about the molecule COc1ccc(Cc2c(-c3ccc(C)cc3)n[nH]c(=O)c2C2C(=O)N(c3ccccc3)N=C2c2ccccc2)cc1 (configuration not stated) ?
Reply: > 90.4 µM

Task item: Then what about the molecule CCc1n[nH]c(=O)n1N1C(=O)C2CCCCC2C1=O (configuration not stated) ?
Reply: > 100 µM

Task item: Then what about the molecule CCOC(=O)CO/N=C\C1=CC(=O)C2CC1C2(C)C (configuration not stated) ?
Reply: > 100 µM

Task item: Then what about the molecule C/C(=N\[N+](C)(C)C)c1ccc(C)c(C)c1 ?
Reply: > 100 µM

Task item: Then what about the molecule COc1ccc(/C=C/c2cc(OC)c(OC)c(OC)c2)cc1O[Si](C)(C)C(C)(C)C ?
Reply: > 100 µM

Task item: Then what about the molecule COC(=O)C(C)(C)NC(=O)C(C)(C)NC(=O)C(CC(=O)OC(C)(C)C)NC(=O)OC(C)(C)C (configuration not stated) (Boc-[ξD](OtBu)-[Aib]-[Aib]-OMe) ?
Reply: > 100 µM

Task item: Then what about the molecule COc1cc(O)cc2oc(-c3ccc(O)cc3)cc(=O)c12 ?
Reply: > 100 µM

Task item: Then what about the molecule S=c1ssnc1-c1ccccn1 ?
Reply: 22 µM

Task item: Then what about the molecule C=CC1(c2ccc(-c3ccccc3)cc2)OCCO1 ?
Reply: > 100 µM

###

- Test system: UACC-62 melanoma
- EXPERIMENT SUMMARY: NCI tumour cell line growth inhibition, 48 h
Exercise: state measured TGI for each of the compounds provided.

Task item: Look up TGI: O=C1c2ccccc2C(=O)N1CCCC(=O)n1cc(F)c(=O)[nH]c1=O
Reply: > 100 µM

Task item: Then what about the compound C=CC(C)c1cccc(C=O)c1O (centres undefined) ?
Reply: > 100 µM

Task item: Then what about the compound Nc1nc2ccc(NCc3ccc(C(=O)NC(CCC(=O)O)C(=O)O)cc3)cc2c(=O)[nH]1 (centres undefined) ?
Reply: > 100 µM

Task item: Then what about the compound O=C1CCC/C=C\C[C@H]2C=CC(=O)/C2=C/C[C@H](CCc2cccc(C(F)(F)F)c2)O1 ?
Reply: 7.52 µM

###

Exercise: state measured TGI for each of the molecules provided.
- Tested on: PC-3 prostate
- EXPERIMENT SUMMARY: NCI tumour cell line growth inhibition, 48 h

Task item: I'm curious: which TGI was measured for C#C[C@@]1(O)[C@@H](CO)O[C@@H](n2cc(Br)c3c(N)ncnc32)[C@@H]1O tested on PC-3 prostate?
Reply: > 29.5 µM

Task item: Then what about the molecule CCOC(=O)CCSS(=O)(=O)c1ccccc1 ?
Reply: > 100 µM

Task item: Then what about the molecule COC(=O)C1=C(O)C(C(=O)OC)[C@]2(O)[C@@H](C(=O)OC)[C@H]1[C@H](C)[C@@H](c1ccccc1)[C@@H]2C(=O)OC (stereo partly specified) ?
Reply: > 100 µM

Task item: Then what about the molecule O=C(Cc1ccccc1CCO)NCCc1ccccc1 ?
Reply: > 100 µM

Task item: Then what about the molecule COc1ccc(NC(=S)Nc2ccccc2)cc1 ?
Reply: > 100 µM

Task item: Then what about the molecule O=C(CCN1CCOCC1)c1ccc(Oc2ccc(F)cc2)cc1 ?
Reply: 34.2 µM

Task item: Then what about the molecule C=CCNC(=S)/N=C\C(C(=O)OCC)=C(/O)C(=O)OCC ?
Reply: > 100 µM

Task item: Then what about the molecule Nc1nc2c(c(=O)[nH]1)CN(CCCN1CCOCC1)CN2 ?
Reply: > 100 µM

Task item: Then what about the molecule Nc1nc(/C=C\c2ccc([N+](=O)[O-])s2)nc(N2CCOCC2)n1 ?
Reply: 28.1 µM

Task item: Then what about the molecule Cc1ccc2cc3c(cc(C)c4ccccc43)c3c2c1CC3 ?
Reply: > 100 µM

Task item: Then what about the molecule O=C(CSc1ncnc2nc[nH]c12)c1ccccc1 ?
Reply: > 100 µM

Task item: Then what about the molecule CCOP(=O)(CN1CCNCCN(CP(=O)(OCC)OCC)CC1)OCC ?
Reply: > 100 µM

Task item: Then what about the molecule CCCC(=O)OCC1OC(n2cnc3c(=S)nc(N)[nH]c32)C(OC(=O)CCC)C1OC(=O)CCC (stereo unspecified) ?
Reply: > 100 µM

Task item: Then what about the molecule OC1CCCCCCCCCCC1SCCCCl (stereo unspecified) ?
Reply: > 100 µM

Task item: Then what about the molecule C[C@@H](CO)C1=C(O)c2ccc3c(c2C(=O)C1=O)CCCC3(C)C ?
Reply: > 100 µM

Task item: Then what about the molecule C=CC1(c2ccc(-c3ccccc3)cc2)OCCO1 ?
Reply: > 100 µM

###

- Test system: HT29 colon
- EXPERIMENT SUMMARY: NCI tumour cell line growth inhibition, 48 h
Exercise: state measured TGI for each of the compounds provided.

Task item: Look up TGI: Nc1nc(N)c2ncn(-c3ccc(Br)cc3)c2n1
Reply: > 45.6 µM

Task item: Then what about the compound Cc1cc(C)c([S@@](=O)O[C@@H]2[C@H]3OC(C)(C)O[C@H]3O[C@@H]2[C@H]2COC(C)(C)O2)c(C)c1 ?
Reply: 85.7 µM

Task item: Then what about the compound Nc1nc2c(c(=O)[nH]1)CN(CCCN1CCOCC1)CN2 ?
Reply: > 100 µM

Task item: Then what about the compound COC(=O)C(CCCCCCCC(C(=O)OC)c1nc2n(c1O)C(=N)N=N2)c1nc2n(c1O)C(=N)N=N2 (stereo not drawn) ?
Reply: > 100 µM

Task item: Then what about the compound C=CC[C@@]1(OC(C)=O)C(=O)C(=O)OC1C1COC(C)(C)O1 (stereo partly drawn) ?
Reply: 36.4 µM

Task item: Then what about the compound O=C(O)CNS(=O)(=O)c1ccc(NC(=O)c2ccccc2[N+](=O)[O-])cc1 ?
Reply: > 100 µM

Task item: Then what about the compound CCCCCC(/C=C/[C@@H]1[C@H]2CC(=O)O[C@H]2C[C@H]1N1CCOCC1)OC1CCCO1 (stereo partly drawn) ?
Reply: > 100 µM

Task item: Then what about the compound CCN(CC)CCNC(=O)c1cc2cc(NC(=O)c3cc4cc(N)ccc4[nH]3)ccc2[nH]1 ?
Reply: > 100 µM

###

- System: CCRF-CEM leukemia
- EXPERIMENT SUMMARY: NCI tumour cell line growth inhibition, 48 h; in the data active = GI50 below about 0.43 µM; inactive = the rest
# valid calls are 1 (yes) = active, 0 (no) = inactive; nothing else

Task item: # outcome recorded in this test, key = Nc1nc(/C=C\c2ccc([N+](=O)[O-])s2)nc(N2CCOCC2)n1
Reply: 0 (no)

Task item: Then what about the compound CCN(Cc1ccccn1)c1ccc(CO)c(Cl)c1 ?
Reply: 0 (no)

Task item: Then what about the compound O=S(=O)(Nc1ccc(Cl)c(F)c1)c1ccc(-c2cnc(C3CC3)o2)cc1 ?
Reply: 1 (yes)

Task item: Then what about the compound NCCNC1=CC(=O)c2nc3ccccc3c3ccnc1c23 ?
Reply: 0 (no)

Task item: Then what about the compound CCn1nc(-c2ccc(C(=O)OC)cc2)nc2c(=O)n(C)c(=O)nc1-2 ?
Reply: 0 (no)

Task item: Then what about the compound O=C1OCC(C#Cc2ccccc2)=C1Br ?
Reply: 0 (no)

Task item: Then what about the compound O=C1CCc2c(Oc3ccc4c(c3)[C@H]3[C@@H](O4)[C@@H]3c3nc4ccc(C(F)(F)F)cc4[nH]3)ccnc2N1 ?
Reply: 0 (no)
